molecular target: FXR receptor (Homo sapiens, UniProt Q96RI1); construct: beta-galactosidase enzyme fragment (EFC/PathHunter); assay: In vitro FXR activity, PathHunter enzyme fragment complementation assay in CHO cells; conditions: CHO PathHunter cells, ten-point dose curve, chemiluminescence
Sequence (Q96RI1 whole entry, the tested form may be a part): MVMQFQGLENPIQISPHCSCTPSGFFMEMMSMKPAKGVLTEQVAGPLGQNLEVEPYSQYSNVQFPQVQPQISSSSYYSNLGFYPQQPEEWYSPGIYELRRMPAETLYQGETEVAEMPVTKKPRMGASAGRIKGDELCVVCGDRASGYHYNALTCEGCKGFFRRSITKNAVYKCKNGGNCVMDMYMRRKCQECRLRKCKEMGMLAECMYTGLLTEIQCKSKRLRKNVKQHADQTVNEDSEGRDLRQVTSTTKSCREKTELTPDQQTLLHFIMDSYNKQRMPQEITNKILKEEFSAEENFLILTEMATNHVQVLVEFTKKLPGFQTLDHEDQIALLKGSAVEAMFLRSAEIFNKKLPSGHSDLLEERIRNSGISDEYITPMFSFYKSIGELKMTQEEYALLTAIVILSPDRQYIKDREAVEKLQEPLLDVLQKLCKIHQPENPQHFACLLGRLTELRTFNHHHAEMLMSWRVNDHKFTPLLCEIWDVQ
MEASUREMENT NAME: EC50 (nM)

| COMPOUND | MEASUREMENT NAME | DATA VALUE |
| --- | --- | --- |
| CP(=O)(O)c1cc(F)c2nc(N3[C@@H]4CC[C@H]3CC(OCc3c(-c5ccccc5OC(F)(F)F)noc3C3CC3)C4)sc2c1 (stereo partly shown) | EC50 | 3080 |
| O=P(O)(O)c1cc(F)c2nc(N3[C@@H]4CC[C@H]3CC(OCc3c(-c5ccccc5OC(F)(F)F)noc3C3CC3)C4)sc2c1 (stereo partly shown) | EC50 | 2860 |
| Oc1cc(-c2cc(F)c3nc(N4[C@@H]5CC[C@H]4CC(OCc4c(-c6ccccc6OC(F)(F)F)noc4C4CC4)C5)sc3c2)no1 (stereo partly shown) | EC50 | 81.1 |
| Oc1cc(-c2cc(F)c3nc(N4[C@@H]5CC[C@H]4CC(OCc4c(-c6ccccc6OC(F)(F)F)noc4C4CC4)C5)sc3c2)on1 (stereo partly shown) | EC50 | 24.6 |

The measured values listed here are drawn from patent US12678430B2.
